Would you mind telling me the reported MIC of each entry?
Tested on: Morganella morganii (MMO) isolates
Test: MIC of compounds alone and combined with antibacterials, broth microdilution (CLSI)
Type: cell-based
Conditions: strain MMO UFR242; genotype TEM-52
Method: Method 2: MIC of Compounds Alone and Combined with Antibacterials Against Bacterial Isolates Compounds of the present invention were assessed against genotyped bacterial strains (Table 3, 4) alone or in combination with an antibacterial (Table 2). […] The MIC of the compounds was defined as the lowest concentration of said compounds that prevented bacterial growth as read by visual inspection. […]
Numbers only, in µg/mL.

[Q] Sample C=CC1=C(C(=O)O)N2C(=O)[C@@H](NC(=O)/C(=N\OCC(=O)O)c3csc(N)n3)[C@H]2SC1 — what was its MIC?
[A] 1024

Switching to the query record.
[Q] State the recorded MIC for this entry: CC(C)(O/N=C(\C(=O)N[C@@H]1C(=O)N2C(C(=O)[O-])=C(C[n+]3ccccc3)CS[C@H]12)c1csc(N)n1)C(=O)O
[A] 32
